target: ΔF508-CFTR (Homo sapiens, UniProt P13569, DEL508-508); construct: host or cells: CFBE41o-, doxycycline-inducible; experiment: CFTR cell surface levels using HRP-tagged ΔF508-CFTR expressing CFBE cells, intrinsic corrector capacity; format: cell-based
Sequence (P13569 with tags, fused parts or gaps DEL508-508): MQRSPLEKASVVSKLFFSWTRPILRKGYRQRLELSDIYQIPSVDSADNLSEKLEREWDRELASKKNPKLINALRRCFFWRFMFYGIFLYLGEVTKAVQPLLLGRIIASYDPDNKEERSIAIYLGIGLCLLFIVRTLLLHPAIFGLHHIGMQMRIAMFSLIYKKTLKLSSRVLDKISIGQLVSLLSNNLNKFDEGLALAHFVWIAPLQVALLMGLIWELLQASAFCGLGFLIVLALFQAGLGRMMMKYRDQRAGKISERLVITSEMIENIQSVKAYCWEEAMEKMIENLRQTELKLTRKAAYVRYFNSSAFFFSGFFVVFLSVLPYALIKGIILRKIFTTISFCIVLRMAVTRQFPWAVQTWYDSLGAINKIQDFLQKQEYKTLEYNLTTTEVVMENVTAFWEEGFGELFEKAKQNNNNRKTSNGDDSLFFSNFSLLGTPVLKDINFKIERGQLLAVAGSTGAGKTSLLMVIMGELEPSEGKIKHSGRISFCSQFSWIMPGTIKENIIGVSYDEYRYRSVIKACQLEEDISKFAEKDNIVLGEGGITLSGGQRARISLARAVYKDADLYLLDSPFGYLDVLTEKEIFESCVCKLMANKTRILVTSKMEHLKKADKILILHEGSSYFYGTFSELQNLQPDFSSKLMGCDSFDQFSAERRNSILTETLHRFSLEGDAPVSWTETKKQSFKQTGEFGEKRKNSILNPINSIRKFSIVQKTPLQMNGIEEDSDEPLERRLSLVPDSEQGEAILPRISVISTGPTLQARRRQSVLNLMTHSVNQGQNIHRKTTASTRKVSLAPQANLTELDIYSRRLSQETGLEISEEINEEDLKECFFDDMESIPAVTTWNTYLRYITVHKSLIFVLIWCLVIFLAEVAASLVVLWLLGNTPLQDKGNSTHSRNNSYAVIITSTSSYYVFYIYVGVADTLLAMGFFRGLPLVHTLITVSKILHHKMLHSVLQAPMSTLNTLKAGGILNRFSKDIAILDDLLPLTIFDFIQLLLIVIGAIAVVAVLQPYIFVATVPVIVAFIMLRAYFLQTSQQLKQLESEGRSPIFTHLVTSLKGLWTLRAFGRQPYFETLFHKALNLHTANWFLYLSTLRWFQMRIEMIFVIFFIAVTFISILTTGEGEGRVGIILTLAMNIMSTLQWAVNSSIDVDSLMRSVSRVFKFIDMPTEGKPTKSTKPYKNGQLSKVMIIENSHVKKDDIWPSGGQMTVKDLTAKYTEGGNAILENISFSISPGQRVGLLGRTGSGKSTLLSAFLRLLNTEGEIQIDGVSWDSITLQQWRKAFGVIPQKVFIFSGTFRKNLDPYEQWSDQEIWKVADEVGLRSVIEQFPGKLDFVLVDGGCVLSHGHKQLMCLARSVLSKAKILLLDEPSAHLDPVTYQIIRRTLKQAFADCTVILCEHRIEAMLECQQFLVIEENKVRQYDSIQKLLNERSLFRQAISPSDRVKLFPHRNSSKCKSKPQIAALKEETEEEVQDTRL
Mark met for EC50 under 0.3 µM, not met if at or over.

Check out these entries, answers already filled in.
Compound	Experimental System	Class
O=C(NS(=O)(=O)CCCN1CCOCC1)c1cc(OCC2CCOCC2)c2c(C3CCC3)nn(-c3ccccc3)c2n1 [Compound 347]	ΔF508-CFTR (Homo sapiens, UniProt P13569, DEL508-508)	met
O=C(NS(=O)(=O)N1CCOCC1)c1cc(N2CCC(CN3CCCC3)CC2)c2c(C3CCC3)nn(-c3ccccc3)c2n1 [Compound 380]	ΔF508-CFTR (Homo sapiens, UniProt P13569, DEL508-508)	met

Hello, is EC50 of the following compound strictly smaller than 0.3 µM? CS(=O)(=O)NC(=O)c1cc(N2CCC[C@@H](CO)C2)c2c(C3CCC3)nn(-c3ccccc3)c2n1 [Compound 349]
not met

Hello, is EC50 of the following compound strictly smaller than 0.3 µM? O=C(NS(=O)(=O)CCCN1CCOCC1)c1cc(N2CCC[C@@H](CO)C2)c2c(C3CCC3)nn(-c3ccccc3)c2n1 [Compound 350]
not met

Hello, is EC50 of the following compound strictly smaller than 0.3 µM? CC(C)Oc1nn(C2CCCCC2)c2nc(C(=O)NS(C)(=O)=O)cc(-c3ccc(C4(C#N)CCN(C)CC4)cc3)c12 [Compound 639]
met

Hello, is EC50 of the following compound strictly smaller than 0.3 µM? O=C(NS(=O)(=O)CCCN1CCOCC1)c1cc(N2CCC(N3CCCCC3)CC2)c2c(C3CCC3)nn(-c3ccccc3)c2n1 [Compound 454]
not met

---

molecular target: ΔF508-CFTR (Homo sapiens, UniProt P13569, DEL508-508); construct: host or cells: CFBE41o-, doxycycline-inducible; assay: CFTR cell surface levels using HRP-tagged ΔF508-CFTR expressing CFBE cells, intrinsic corrector capacity; assay type: cell-based; set-up: concentration or dose not given beside the values; conditions: HRP-tagged ΔF508-CFTR expressing CFBE41o- cells; compound alone (intrinsic corrector capacity); 20 hours at 33° C.
Decision: % Activation >= 200% yields criterion met, all other cases yield criterion not met.

Check out these entries, answers already filled in.
Compound	Class
CCS(=O)(=O)NC(=O)c1cc(-c2ccc(N3CC(N(C)C)C3)cc2)c2c(C)nn(-c3ccccc3)c2n1 [Compound 42]	criterion not met
COC1(CN2CCS(=O)(=O)CC2)CCN(c2cc(C(=O)NS(C)(=O)=O)nc3c2c(C2CCC2)nn3-c2ccccc2)CC1 [Compound 255]	criterion not met
Cc1cccc(-n2nc(C(C)C)c3c(N4CCC5(CCOCC5)C4)cc(C(=O)NS(C)(=O)=O)nc32)c1 [Compound 171]	criterion not met

Record CN(C)S(=O)(=O)NC(=O)c1cc(N2CCC(N3CCOCC3)CC2)c2c(C3CCC3)nn(C3CCCCC3)c2n1 [Compound 420] ; criterion: % Activation no lower than 200%. Met?
criterion met

Record COCC1CCN(c2cc(C(=O)NS(=O)(=O)N3CCC(N4CCOCC4)CC3)nc3c2c(C2CCC2)nn3-c2ccccc2)CC1 [Compound 397] ; criterion: % Activation no lower than 200%. Met?
criterion met

Record Cc1cccc(-n2nc(C(C)C)c3c(N4CCC5(C4)CC5(F)F)cc(C(=O)NS(C)(=O)=O)nc32)c1 (centres unmarked) [Compound 149] ; criterion: % Activation no lower than 200%. Met?
criterion not met

Record CN(C)S(=O)(=O)NC(=O)c1cc(N2CCC(CCN3CCOCC3)CC2)c2c(C3CCC3)nn(C3CCCCC3)c2n1 [Compound 425] ; criterion: % Activation no lower than 200%. Met?
criterion met

Record CNS(=O)(=O)NC(=O)c1cc(N2CCC(N3CCC(OC)CC3)CC2)c2c(C3CCC3)nn(-c3ccc(F)cc3)c2n1 [Compound 629] ; criterion: % Activation no lower than 200%. Met?
criterion met

Record CC(C)c1nn(C2CCCOC2)c2nc(C(=O)NS(C)(=O)=O)cc(-c3ccc(N4CCOCC4)cc3)c12 (centres unmarked) [Compound 39] ; criterion: % Activation no lower than 200%. Met?
criterion not met

meta.source: patent US10259810B2
